- Measurement target: full-length ATR (Homo sapiens, UniProt Q13535)
- Construct: Assays were carried out at 25° C. in the presence of 5 nM full-length ATR
- Sequence (Q13535 whole entry): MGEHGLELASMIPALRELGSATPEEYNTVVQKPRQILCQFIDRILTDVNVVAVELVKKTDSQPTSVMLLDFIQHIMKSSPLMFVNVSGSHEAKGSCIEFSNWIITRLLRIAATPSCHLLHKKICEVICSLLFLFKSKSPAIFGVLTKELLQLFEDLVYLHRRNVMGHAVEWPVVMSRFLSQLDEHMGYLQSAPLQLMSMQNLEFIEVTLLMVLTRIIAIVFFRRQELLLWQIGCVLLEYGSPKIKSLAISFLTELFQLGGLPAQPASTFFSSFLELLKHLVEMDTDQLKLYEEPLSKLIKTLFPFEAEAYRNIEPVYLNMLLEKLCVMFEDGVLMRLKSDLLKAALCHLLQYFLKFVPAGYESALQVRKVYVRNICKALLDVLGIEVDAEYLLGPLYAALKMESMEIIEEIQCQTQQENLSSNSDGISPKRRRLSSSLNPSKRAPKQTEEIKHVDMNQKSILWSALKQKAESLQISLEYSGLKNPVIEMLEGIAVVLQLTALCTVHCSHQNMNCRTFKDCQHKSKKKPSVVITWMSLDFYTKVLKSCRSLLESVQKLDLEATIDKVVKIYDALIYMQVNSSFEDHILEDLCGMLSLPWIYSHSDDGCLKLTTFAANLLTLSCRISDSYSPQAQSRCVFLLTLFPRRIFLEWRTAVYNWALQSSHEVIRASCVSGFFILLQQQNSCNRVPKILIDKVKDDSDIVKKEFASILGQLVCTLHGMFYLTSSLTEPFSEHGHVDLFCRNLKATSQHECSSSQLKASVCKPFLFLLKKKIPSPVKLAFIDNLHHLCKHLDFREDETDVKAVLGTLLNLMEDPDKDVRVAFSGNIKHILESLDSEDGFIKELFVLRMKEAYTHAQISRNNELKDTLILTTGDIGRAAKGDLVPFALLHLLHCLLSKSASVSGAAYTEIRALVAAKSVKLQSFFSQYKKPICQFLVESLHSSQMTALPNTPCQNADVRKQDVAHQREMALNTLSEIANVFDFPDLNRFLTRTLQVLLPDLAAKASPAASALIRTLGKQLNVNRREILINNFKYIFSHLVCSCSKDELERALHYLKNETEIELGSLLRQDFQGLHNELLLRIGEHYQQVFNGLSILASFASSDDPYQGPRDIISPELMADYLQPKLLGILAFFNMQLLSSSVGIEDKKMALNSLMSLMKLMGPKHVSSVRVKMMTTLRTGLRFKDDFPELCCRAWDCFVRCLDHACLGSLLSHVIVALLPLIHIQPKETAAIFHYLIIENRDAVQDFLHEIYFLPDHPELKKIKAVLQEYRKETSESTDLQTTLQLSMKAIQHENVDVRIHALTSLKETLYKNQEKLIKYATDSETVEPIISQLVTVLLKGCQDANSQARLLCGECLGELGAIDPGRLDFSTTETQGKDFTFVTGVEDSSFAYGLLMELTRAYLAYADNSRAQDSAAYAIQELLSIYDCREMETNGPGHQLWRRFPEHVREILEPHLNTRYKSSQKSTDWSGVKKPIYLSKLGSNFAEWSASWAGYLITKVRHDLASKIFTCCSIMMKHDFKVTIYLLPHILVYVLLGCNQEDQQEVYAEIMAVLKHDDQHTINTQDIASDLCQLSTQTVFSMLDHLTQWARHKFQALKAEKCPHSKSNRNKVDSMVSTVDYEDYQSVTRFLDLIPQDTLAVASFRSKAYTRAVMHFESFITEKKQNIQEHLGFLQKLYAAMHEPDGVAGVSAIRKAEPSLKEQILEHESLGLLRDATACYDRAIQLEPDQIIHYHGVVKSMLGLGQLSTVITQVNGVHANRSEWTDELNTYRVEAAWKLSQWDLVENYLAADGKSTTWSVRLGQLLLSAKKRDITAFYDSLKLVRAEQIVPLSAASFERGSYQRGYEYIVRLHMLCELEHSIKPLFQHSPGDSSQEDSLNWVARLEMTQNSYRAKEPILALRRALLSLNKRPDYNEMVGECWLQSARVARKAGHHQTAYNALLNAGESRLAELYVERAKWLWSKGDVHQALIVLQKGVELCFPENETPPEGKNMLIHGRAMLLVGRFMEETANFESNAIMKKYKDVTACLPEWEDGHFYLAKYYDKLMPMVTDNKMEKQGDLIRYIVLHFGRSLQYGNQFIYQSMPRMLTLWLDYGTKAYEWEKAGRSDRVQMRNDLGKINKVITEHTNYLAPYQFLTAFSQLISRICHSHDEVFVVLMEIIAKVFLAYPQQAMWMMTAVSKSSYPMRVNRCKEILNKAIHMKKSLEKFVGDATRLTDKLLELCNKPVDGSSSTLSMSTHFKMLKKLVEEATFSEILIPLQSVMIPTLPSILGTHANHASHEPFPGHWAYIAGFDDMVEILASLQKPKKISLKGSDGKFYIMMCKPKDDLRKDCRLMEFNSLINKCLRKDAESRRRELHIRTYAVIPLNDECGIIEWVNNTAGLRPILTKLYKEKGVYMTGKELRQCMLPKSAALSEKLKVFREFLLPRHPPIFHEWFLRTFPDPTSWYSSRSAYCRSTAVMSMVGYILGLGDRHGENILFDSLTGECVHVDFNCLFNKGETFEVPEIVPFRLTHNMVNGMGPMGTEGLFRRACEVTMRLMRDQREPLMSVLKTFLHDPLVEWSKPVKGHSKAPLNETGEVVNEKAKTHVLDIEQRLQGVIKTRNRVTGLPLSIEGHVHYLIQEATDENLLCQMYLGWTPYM
- Assay method text: ATR Inhibition Assay (radioactive-phosphate incorporation)
- Setup conditions: Ki(app); 10 μM ATP, 5 nM full-length ATR, 25° C.
- Experimental: Compounds were screened for their ability to inhibit ATR kinase using a radioactive-phosphate incorporation assay. Assays were carried out in a mixture of 50 mM Tris/HCl (pH 7.5), 10 mM MgCl2 and 1 mM DTT. […] After removing mean background values for all of the data points, Ki(app) data were calculated from non-linear regression analysis of the initial rate data using the Prism software package (GraphPad Prism version 3.0cx for Macintosh, GraphPad Software, San Diego Calif., USA). […]
pKi: −log10 of the molar value.
Test readout: pKi

Smiles input | Test readout | Experimental value
CC(C)S(=O)(=O)c1ccc(-c2cnc(N)c(-c3cc(-c4ccc(CNCC5COC5)cc4)no3)n2)cc1 | pKi | 9.68
